System: HL-60(TB) leukemia
Assay Details: NCI tumour cell line growth inhibition, 48 h
Give measured TGI for each item. Keep answers brief.

Example results:
Molecule	TGI
O=C1CCC2SC1CCC2=O	> 100 µM
O=C(c1ccccc1)c1c(C(=O)c2ccccc2)c(-c2ccccc2)c2c(-c3ccccc3)sc(-c3ccccc3)c2c1-c1ccccc1	> 100 µM
COC(=O)N/N=C/c1oc(-c2cccc([N+](=O)[O-])c2)c(-c2cccc([N+](=O)[O-])c2)c1[N+](=O)[O-]	55.4 µM
Cc1ccc(S(=O)(=O)NNC(=S)Nc2cccc3ccccc23)cc1	> 100 µM
COC(=O)[C@H](Cc1ccccc1)NC(=O)N1CCN(C(=O)N[C@@H](Cc2ccccc2)C(=O)OC)CCN(C(=O)N[C@@H](Cc2ccccc2)C(=O)OC)CC1	> 100 µM
O=C1CCCc2cc3c(cc21)CCC3C(=O)O (stereo not drawn)	> 100 µM
CCOC(=O)C(C)c1cc(C2(C)OCCO2)c(C)o1 (stereo not drawn)	> 100 µM
Cc1ccc2c(=O)c3cccc(CC(=O)O)c3oc2c1C	> 100 µM
CCCNC(=S)/N=C\c1c(O)c2ccccc2oc1=O	> 100 µM
CCOC(=O)CCC(NC(=O)c1ccc(Nc2nc3cc(C(F)(F)F)ccc3nc2-c2ccccc2)cc1)C(=O)OCC (stereo not drawn)	> 100 µM

Report TGI for each item below.
1. O=C(Nc1ccc(Cl)cc1)c1cc2ccccc2cc1O
2. COC(=O)c1c(CC#N)cccc1CC#N
3. CC1(C)OCC(C2OC(N3O[C@H](CI)C[C@@H]3c3ccccc3)C3OC(C)(C)OC23)O1 (stereo partly drawn)

// result
7.91 µM
> 100 µM
> 100 µM

====

Tested on: OVCAR-4 ovarian
Assay Details: NCI tumour cell line growth inhibition, 48 h
Give measured TGI for each item. Keep answers brief.

Compound	Target	Observed
Cc1ccc(S(=O)(=O)N2CCCCN(S(=O)(=O)c3ccc(C)cc3)Cc3ccccc3OCCOCCOc3c4cccc3Cc3cccc5c3OCCOCCOc3ccccc3CN(S(=O)(=O)c3ccc(C)cc3)CCCN(S(=O)(=O)c3ccc(C)cc3)Cc3ccccc3OCCOCCOc3c(cccc3C4)Cc3cccc(c3OCCOCCOc3ccccc3C2)C5)cc1	OVCAR-4 ovarian	> 100 µM
O=c1cc(-c2ccccc2)nc2n1CCN2Cc1ccccc1	OVCAR-4 ovarian	> 100 µM
C=C1C(=O)OC2CC3(CO3)C3C(O)C(O)CC3(C)CC12 (stereo not drawn)	OVCAR-4 ovarian	> 100 µM
CC(C)(C)N1NC1C1NN1C(C)(C)C (stereo not drawn)	OVCAR-4 ovarian	> 100 µM
CC1=NN(C(=O)Cc2ccccc2)C(=O)/C1=C\C=C\c1ccccc1	OVCAR-4 ovarian	> 100 µM

Report TGI for each item below.
1. COC(=N)C12C(N)=NC(OC)(OC)C1(C#N)C21C(=O)N(c2ccccc2)N=C1C (stereo not drawn)
2. C[C@]12CCC(=O)C(O)=C1CC[C@@H]1[C@@H]2CC[C@]2(C)C(=O)CC[C@@H]12
3. O=C(NC(=S)Nc1ccc(Cl)cc1)c1ccccc1

// result
["> 100 µM", "> 100 µM", "> 100 µM"]

====

Test system: HS 578T breast
Assay Details: NCI tumour cell line growth inhibition, 48 h
Give measured TGI for each item. Keep answers brief.

Example results:
Compound	TGI
COc1ccc2[nH]c(Cl)c(/C=C3/C(=O)N(C)c4ccccc43)c2c1	> 100 µM
C=CCOCn1ccc(=O)[nH]c1=O	> 100 µM
C[N+](C)(CCCCCC[N+](C)(C)CCCN1C(=O)c2cc3ccccc3cc2C1=O)CCCN1C(=O)c2ccccc2C1=O	> 37.5 µM

Report TGI for each item below.
1. [N-]=[N+]=Nc1ccc2c(c1)Sc1ccccc1N2CCCCCl
2. C[N+]1(C)CCC(C#N)(c2ccccc2)CC1
3. CCSc1nc(N=Cc2cccs2)c2cn[nH]c2n1
4. O=S(=O)(c1ccc(I)cc1)N(c1ccccc1)S(=O)(=O)C(F)(F)C(F)(F)C(F)(F)C(F)(F)F

// result
> 100 µM
> 100 µM
> 100 µM
99.5 µM

Report TGI for each item below.
1. CC(C)(C)N1NC1C1NN1C(C)(C)C (centres undefined)
2. COC(=O)C1(O)c2ccccc2N=C2C(=O)c3ccccc3N21 (centres undefined)
3. COc1ccc(SC(C)(SC)c2ccccn2)c(OC)n1 (centres undefined)
4. c1ccc2sc(C3(N4CCCCC4)CCCC3)cc2c1
5. O=C(Nc1nc(C23CC4CC(CC(C4)C2)C3)cs1)c1cc2cc(Br)cc(Br)c2oc1=O

// result
1: > 100 µM; 2: > 100 µM; 3: > 100 µM; 4: 33.4 µM; 5: 79.7 µM

Report TGI for each item below.
1. CC(=O)OC1COC(n2c(N)c(C#N)c(C)c(C#N)c2=S)C(OC(C)=O)C1OC(C)=O (centres undefined)
2. COc1ccc(/C=C\c2cc(OC)c(OC)c(OC)c2)cc1OCC(=O)Nc1nc2ccc(C(F)(F)F)cc2s1

// result
> 100 µM
> 100 µM

The measured values listed here are drawn from PubChem BioAssay (NCI).
